- Tested system: hMeprin α (Homo sapiens, UniProt Q16819)
- Sequence (Q16819 66-746): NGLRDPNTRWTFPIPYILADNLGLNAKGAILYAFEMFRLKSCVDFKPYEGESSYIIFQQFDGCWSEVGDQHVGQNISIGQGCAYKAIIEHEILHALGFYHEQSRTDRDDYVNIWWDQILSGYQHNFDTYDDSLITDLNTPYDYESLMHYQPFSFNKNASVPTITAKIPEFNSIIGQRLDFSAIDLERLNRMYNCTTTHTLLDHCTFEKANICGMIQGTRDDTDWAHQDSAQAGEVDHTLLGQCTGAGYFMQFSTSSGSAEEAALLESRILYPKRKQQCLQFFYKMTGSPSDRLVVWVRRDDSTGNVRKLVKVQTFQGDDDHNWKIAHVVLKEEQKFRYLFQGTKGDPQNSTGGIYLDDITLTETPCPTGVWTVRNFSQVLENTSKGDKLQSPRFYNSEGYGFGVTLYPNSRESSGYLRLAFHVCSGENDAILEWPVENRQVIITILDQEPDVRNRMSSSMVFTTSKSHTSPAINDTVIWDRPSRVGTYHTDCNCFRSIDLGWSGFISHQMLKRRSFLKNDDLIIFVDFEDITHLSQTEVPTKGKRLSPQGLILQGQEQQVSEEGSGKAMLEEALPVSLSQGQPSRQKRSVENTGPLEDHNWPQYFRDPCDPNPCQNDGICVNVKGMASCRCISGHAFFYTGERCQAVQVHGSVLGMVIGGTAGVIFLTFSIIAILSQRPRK
- Run description: biochemical
- Type: biochemical
Measurement kind: pIC50
Interpret pIC50 as the negative base-10 log of the concentration measured in mol/L.

Query: I am curious: what pIC50 value has been reported for `O=C(CN(Cc1c(F)ccc(O)c1F)Cc1c(F)ccc(O)c1F)NO` ?
Response: 5.25

Query: I am curious: what pIC50 value has been reported for `O=C(CN(Cc1ccc(F)cc1)Cc1cccc(C(=O)O)c1)NO` ?
Response: 5.38

---

- Tested system: hMeprin β (Homo sapiens, UniProt Q16820)
- Sequence (Q16820 62-701): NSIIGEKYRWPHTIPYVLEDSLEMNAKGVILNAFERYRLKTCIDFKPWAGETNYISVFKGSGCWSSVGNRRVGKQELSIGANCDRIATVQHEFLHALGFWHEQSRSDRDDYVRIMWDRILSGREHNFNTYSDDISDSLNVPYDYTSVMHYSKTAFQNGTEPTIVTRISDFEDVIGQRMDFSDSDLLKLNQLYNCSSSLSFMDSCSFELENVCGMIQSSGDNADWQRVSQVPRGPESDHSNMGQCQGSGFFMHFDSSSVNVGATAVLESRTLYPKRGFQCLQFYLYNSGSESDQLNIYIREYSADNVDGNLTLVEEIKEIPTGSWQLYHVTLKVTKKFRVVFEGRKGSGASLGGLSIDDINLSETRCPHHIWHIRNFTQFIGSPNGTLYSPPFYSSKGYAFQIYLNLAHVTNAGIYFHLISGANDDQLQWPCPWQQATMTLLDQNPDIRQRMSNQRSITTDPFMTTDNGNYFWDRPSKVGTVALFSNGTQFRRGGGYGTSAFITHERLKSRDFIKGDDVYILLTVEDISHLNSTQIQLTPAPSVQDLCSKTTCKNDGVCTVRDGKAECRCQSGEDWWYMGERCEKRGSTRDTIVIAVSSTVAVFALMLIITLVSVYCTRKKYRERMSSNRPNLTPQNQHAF
- Run description: Enzymatic assay, cleavage of internally quenched peptide substrate, hMeprin β
- Type: biochemical
pIC50: −log10 of the molar value.
Threshold rule: pIC50 greater than or equal to 5 is T; below that, F.

CCCOc1ccc(CN(CC(=O)NO)Cc2cccc(C(=O)O)c2)cc1; T
O=C(CN(Cc1cccnc1)Cc1cccnc1)NO; F
Cc1ccc(CN(CC(=O)NO)Cc2cccc(C(=O)O)c2)cc1; T
O=C(CCN(Cc1ccccc1)Cc1ccccc1)NO [Example 71, 3-(dibenzylamino) propanehydroxamic acid]; F
O=C(CN(Cc1ccc2c(c1)OCO2)Cc1ccc2c(c1)OCO2)NO; T

Query: Entry `COc1cc(CN(CC(=O)NO)Cc2cc(OC)c3c(c2)OCO3)cc2c1OCO2` : is its pIC50 no less than 5?
Response: T

Query: Entry `N#Cc1cccc(CN(CCC(=O)NO)Cc2cccc(C#N)c2)c1` : is its pIC50 no less than 5?
Response: F

Query: Entry `O=C(CN(Cc1ccc2c(c1)OCCO2)Cc1ccc2c(c1)OCCO2)NO` : is its pIC50 no less than 5?
Response: F

Query: Entry `COC(=O)c1cccc(CN(CC(=O)NO)Cc2cccc(C(=O)O)c2)c1` : is its pIC50 no less than 5?
Response: T

---

- Tested system: hMeprin α (Homo sapiens, UniProt Q16819)
- Run description: biochemical
- Format: biochemical
- Settings: average IC50; 10 μM substrate, 30° C., 40 mM HEPES pH 7.4; read-out: Meprin Alpha IC50
- Description: A typical assay of 250 μl total volume measured in black 96 well plates consisted of 100 μl buffer, 50 μl enzyme at a final concentration of 5e-8 M to 5e-9 M, 50 μl substrate (0.15 to 80 μM, in buffer, 0.5% DMSO) and 50 μl inhibitor solution (in buffer, 1% DMSO). […] Enzymatic activity of ADAMs was measured in 384 well plates with 60 μl total assay volume consisting of 20 μl inhibitor, 20 μl buffer, 10 μl enzyme and 10 μl substrate. […]
Reported pIC50 values are given for each entry in this list.
Interpret pIC50 as the negative base-10 log of the concentration measured in mol/L.

O=C(CN(Cc1cccc(C(=O)O)c1)Cc1ccc2c(c1)OCO2)NO [Example 22]; 5.84
COc1cc(CN(CC(=O)NO)Cc2cc(OC)c(OC)c(OC)c2)cc(OC)c1OC [Example 61]; 5.27
COc1c(F)ccc(CN(CCC(=O)NO)Cc2ccc(F)c(OC)c2F)c1F [Example 64]; 6.06
O=C(CN(Cc1ccc(F)c(O)c1F)Cc1ccc(F)c(O)c1F)NO [Example 47]; 6.20
CC(C)[C@H](NCc1cccc(C(=O)O)c1)C(=O)NO [Example 29]; 4.35
COc1cc(F)c(CN(CC(=O)NO)Cc2cccc(C(=O)O)c2)c(F)c1 [Example 11]; 5.67
Cc1ccc(CN(CC(=O)NO)Cc2cccc(C(=O)O)c2)cc1 [Example 18]; 5.33
COc1ccc(CN(CC(=O)NO)Cc2ccc(Cl)cc2)cc1 [Example 26]; 5.70
O=C(O)C[C@@H](NCc1cccc(C(=O)O)c1)C(=O)NO [Example 46]; 4.82

Query: Item O=C(O)CC[C@H](NCc1cccc(C(=O)O)c1)C(=O)NO [Example 39] with hMeprin α (Homo sapiens, UniProt Q16819) - pIC50?
Response: 5.06
